# Tested on: Candida albicans
# measurement_description: In vitro Fungicidal activity (MFC) against Candida albicans (MY 1055).
# Type: functional
Numbered stars: 1 amine (or outer) side, 2 acyl side, 3 side chain; on linkers, the order of the positions; unused ones are H or OH. Bridge positions count the residues as written; N and C are the ends. Square brackets hold non-standard residues; d marks the D form. Peptide text beside a SMILES is read from it. * marks the point of attachment. Orn(4R-OH,5R-OH) = O=C([C@H](C[C@@H](O)[C@@H](O)N[*:3])N[*:1])[*:2]; hTyr(3S-OH,4S-OH) = N[C@H](C(=O)O)[C@H](O)[C@@H](O)c1ccc(O)cc1; Orn(4R-OH) = O=C([C@H](C[C@@H](O)CN[*:3])N[*:1])[*:2]; hTyr(3R-OH) = N[C@H](C(=O)O)[C@H](O)Cc1ccc(O)cc1; X2 = O=C(O)C[C@@H](O)[C@H](N[*:1])C(=O)[*:2]; X13 = CNCC[C@@H](O)[C@H](N[*:1])C(=O)[*:2]; X9 = N#CC[C@@H](O)[C@H](N[*:1])C(=O)[*:2]; Pro(3S-OH) = O=C(O)[C@H]1NCC[C@@H]1O; Hyp = O=C(O)[C@@H]1C[C@@H](O)CN1; X1 = CCC(C)CC(C)CCCCCCCCC(=O)*
measured_property: MFC (µg/mL)

1. CCC(C)CC(C)CCCCCCCCC(=O)N[C@H]1C[C@@H](O)[C@@H](O)NC(=O)[C@@H]2[C@@H](O)CCN2C(=O)[C@H]([C@H](O)CC#N)NC(=O)[C@H]([C@H](O)[C@@H](O)c2ccc(O)cc2)NC(=O)[C@@H]2C[C@@H](O)CN2C(=O)[C@H]([C@@H](C)O)NC1=O (stereo partly drawn) (X1-[Orn(4R-OH,5R-OH)]T[Hyp][hTyr(3S-OH,4S-OH)][X9][Pro(3S-OH)]; lactam 1-C) = 2
2. CCC(C)CC(C)CCCCCCCCC(=O)N[C@H]1C[C@@H](O)[C@@H](O)NC(=O)[C@@H]2[C@@H](O)CCN2C(=O)[C@H]([C@H](O)CCNC)NC(=O)[C@H]([C@H](O)[C@@H](O)c2ccc(O)cc2)NC(=O)[C@@H]2C[C@@H](O)CN2C(=O)[C@H]([C@@H](C)O)NC1=O (stereo partly drawn) (X1-[Orn(4R-OH,5R-OH)]T[Hyp][hTyr(3S-OH,4S-OH)][X13][Pro(3S-OH)]; lactam 1-C) = 2
3. CCC(C)CC(C)CCCCCCCCC(=O)N[C@H]1C[C@@H](O)CNC(=O)[C@@H]2[C@@H](O)CCN2C(=O)[C@H]([C@H](O)CC(=O)O)NC(=O)[C@H]([C@H](O)Cc2ccc(O)cc2)NC(=O)[C@@H]2C[C@@H](O)CN2C(=O)[C@H]([C@@H](C)O)NC1=O (stereo partly drawn) (X1-[Orn(4R-OH)]T[Hyp][hTyr(3R-OH)][X2][Pro(3S-OH)]; lactam 1-C) = 0.25

====

# Test system: Candida albicans
# measurement_description: In vitro Fungicidal activity (MFC) against Candida albicans (MY 1055).
# Format: functional
Numbered stars: 1 amine (or outer) side, 2 acyl side, 3 side chain; on linkers, the order of the positions; unused ones are H or OH. Bridge positions count the residues as written; N and C are the ends. Square brackets hold non-standard residues; d marks the D form. Peptide text beside a SMILES is read from it. * marks the point of attachment. Orn(4R-OH,5R-OH) = O=C([C@H](C[C@@H](O)[C@@H](O)N[*:3])N[*:1])[*:2]; hTyr(3S-OH,4S-OH) = N[C@H](C(=O)O)[C@H](O)[C@@H](O)c1ccc(O)cc1; Orn(4R-OH) = O=C([C@H](C[C@@H](O)CN[*:3])N[*:1])[*:2]; hTyr(3R-OH) = N[C@H](C(=O)O)[C@H](O)Cc1ccc(O)cc1; Gln(3R-OH) = NC(=O)C[C@@H](O)[C@H](N)C(=O)O; X9 = N#CC[C@@H](O)[C@H](N[*:1])C(=O)[*:2]; Pro(3S-OH) = O=C(O)[C@H]1NCC[C@@H]1O; Hyp = O=C(O)[C@@H]1C[C@@H](O)CN1; X1 = CCC(C)CC(C)CCCCCCCCC(=O)*
Listed below: MFC values for each entry.
measured_property: MFC (µg/mL)

1) CCC(C)CC(C)CCCCCCCCC(=O)N[C@H]1C[C@@H](O)[C@@H](O)NC(=O)[C@@H]2[C@@H](O)CCN2C(=O)[C@H]([C@H](O)CC(N)=O)NC(=O)[C@H]([C@H](O)[C@@H](O)c2ccc(O)cc2)NC(=O)[C@@H]2C[C@@H](O)CN2C(=O)[C@H]([C@@H](C)O)NC1=O (stereo partly drawn) (X1-[Orn(4R-OH,5R-OH)]T[Hyp][hTyr(3S-OH,4S-OH)][Gln(3R-OH)][Pro(3S-OH)]; lactam 1-C) = 0.25
2) CCC(C)CC(C)CCCCCCCCC(=O)N[C@H]1C[C@@H](O)CNC(=O)[C@@H]2[C@@H](O)CCN2C(=O)[C@H]([C@H](O)CC(N)=O)NC(=O)[C@H]([C@H](O)Cc2ccc(O)cc2)NC(=O)[C@@H]2C[C@@H](O)CN2C(=O)[C@H]([C@@H](C)O)NC1=O (stereo partly drawn) (X1-[Orn(4R-OH)]T[Hyp][hTyr(3R-OH)][Gln(3R-OH)][Pro(3S-OH)]; lactam 1-C) = 0.25
3) CCC(C)CC(C)CCCCCCCCC(=O)N[C@H]1C[C@@H](O)CNC(=O)[C@@H]2[C@@H](O)CCN2C(=O)[C@H]([C@H](O)CC#N)NC(=O)[C@H]([C@H](O)Cc2ccc(O)cc2)NC(=O)[C@@H]2C[C@@H](O)CN2C(=O)[C@H]([C@@H](C)O)NC1=O (stereo partly drawn) (X1-[Orn(4R-OH)]T[Hyp][hTyr(3R-OH)][X9][Pro(3S-OH)]; lactam 1-C) = 1

====

A set of compounds tested on Beta-1,3-glucan synthase (Candida albicans), with measured IC50:
Numbered stars: 1 amine (or outer) side, 2 acyl side, 3 side chain; on linkers, the order of the positions; unused ones are H or OH. Bridge positions count the residues as written; N and C are the ends. Square brackets hold non-standard residues; d marks the D form. Peptide text beside a SMILES is read from it. * marks the point of attachment. Orn(4R-OH,5R-OH) = O=C([C@H](C[C@@H](O)[C@@H](O)N[*:3])N[*:1])[*:2]; hTyr(3S-OH,4S-OH) = N[C@H](C(=O)O)[C@H](O)[C@@H](O)c1ccc(O)cc1; X8 = O=C(O)CCCCCNC(=O)C[C@@H](O)[C@H](N[*:1])C(=O)[*:2]; Orn(4R-OH) = O=C([C@H](C[C@@H](O)CN[*:3])N[*:1])[*:2]; X15 = NCCCCCCNC(=O)C[C@@H](O)[C@H](N[*:1])C(=O)[*:2]; hTyr(3R-OH) = N[C@H](C(=O)O)[C@H](O)Cc1ccc(O)cc1; X12 = CC(=O)NCC[C@@H](O)[C@H](N[*:1])C(=O)[*:2]; X14 = NNC(=O)C[C@@H](O)[C@H](N[*:1])C(=O)[*:2]; X5 = NC(N)=NCC[C@@H](O)[C@H](N[*:1])C(=O)[*:2]; X3 = O=C(C[C@@H](O)[C@H](N[*:1])C(=O)[*:2])NO; X7 = CN(C)CC[C@@H](O)[C@H](N[*:1])C(=O)[*:2]; Gln(3R-OH) = NC(=O)C[C@@H](O)[C@H](N)C(=O)O; X9 = N#CC[C@@H](O)[C@H](N[*:1])C(=O)[*:2]; Pro(3S-OH) = O=C(O)[C@H]1NCC[C@@H]1O; Hyp = O=C(O)[C@@H]1C[C@@H](O)CN1; X1 = CCC(C)CC(C)CCCCCCCCC(=O)*
measured_property: IC50

1. CCC(C)CC(C)CCCCCCCCC(=O)N[C@H]1C[C@@H](O)[C@@H](O)NC(=O)[C@@H]2[C@@H](O)CCN2C(=O)[C@H]([C@H](O)CCN=C(N)N)NC(=O)[C@H]([C@H](O)[C@@H](O)c2ccc(O)cc2)NC(=O)[C@@H]2C[C@@H](O)CN2C(=O)[C@H]([C@@H](C)O)NC1=O (stereo partly drawn) (X1-[Orn(4R-OH,5R-OH)]T[Hyp][hTyr(3S-OH,4S-OH)][X5][Pro(3S-OH)]; lactam 1-C) = 7 nM
2. CCC(C)CC(C)CCCCCCCCC(=O)N[C@H]1C[C@@H](O)[C@@H](O)NC(=O)[C@@H]2[C@@H](O)CCN2C(=O)[C@H]([C@H](O)CCNC(C)=O)NC(=O)[C@H]([C@H](O)[C@@H](O)c2ccc(O)cc2)NC(=O)[C@@H]2C[C@@H](O)CN2C(=O)[C@H]([C@@H](C)O)NC1=O (stereo partly drawn) (X1-[Orn(4R-OH,5R-OH)]T[Hyp][hTyr(3S-OH,4S-OH)][X12][Pro(3S-OH)]; lactam 1-C) = 300 nM
3. CCC(C)CC(C)CCCCCCCCC(=O)N[C@H]1C[C@@H](O)CNC(=O)[C@@H]2[C@@H](O)CCN2C(=O)[C@H]([C@H](O)CC#N)NC(=O)[C@H]([C@H](O)Cc2ccc(O)cc2)NC(=O)[C@@H]2C[C@@H](O)CN2C(=O)[C@H]([C@@H](C)O)NC1=O (stereo partly drawn) (X1-[Orn(4R-OH)]T[Hyp][hTyr(3R-OH)][X9][Pro(3S-OH)]; lactam 1-C) = 100 nM
4. CCC(C)CC(C)CCCCCCCCC(=O)N[C@H]1C[C@@H](O)CNC(=O)[C@@H]2[C@@H](O)CCN2C(=O)[C@H]([C@H](O)CC(=O)NCCCCCCN)NC(=O)[C@H]([C@H](O)Cc2ccc(O)cc2)NC(=O)[C@@H]2C[C@@H](O)CN2C(=O)[C@H]([C@@H](C)O)NC1=O (stereo partly drawn) (X1-[Orn(4R-OH)]T[Hyp][hTyr(3R-OH)][X15][Pro(3S-OH)]; lactam 1-C) = 38 nM
5. CCC(C)CC(C)CCCCCCCCC(=O)N[C@H]1C[C@@H](O)CNC(=O)[C@@H]2[C@@H](O)CCN2C(=O)[C@H]([C@H](O)CC(=O)NCCCCCC(=O)O)NC(=O)[C@H]([C@H](O)Cc2ccc(O)cc2)NC(=O)[C@@H]2C[C@@H](O)CN2C(=O)[C@H]([C@@H](C)O)NC1=O (stereo partly drawn) (X1-[Orn(4R-OH)]T[Hyp][hTyr(3R-OH)][X8][Pro(3S-OH)]; lactam 1-C) = 900 nM
6. CCC(C)CC(C)CCCCCCCCC(=O)N[C@H]1C[C@@H](O)CNC(=O)[C@@H]2[C@@H](O)CCN2C(=O)[C@H]([C@H](O)CC(=O)NO)NC(=O)[C@H]([C@H](O)Cc2ccc(O)cc2)NC(=O)[C@@H]2C[C@@H](O)CN2C(=O)[C@H]([C@@H](C)O)NC1=O (stereo partly drawn) (X1-[Orn(4R-OH)]T[Hyp][hTyr(3R-OH)][X3][Pro(3S-OH)]; lactam 1-C) = 80 nM
7. CCC(C)CC(C)CCCCCCCCC(=O)N[C@H]1C[C@@H](O)CNC(=O)[C@@H]2[C@@H](O)CCN2C(=O)[C@H]([C@H](O)CC(=O)NN)NC(=O)[C@H]([C@H](O)Cc2ccc(O)cc2)NC(=O)[C@@H]2C[C@@H](O)CN2C(=O)[C@H]([C@@H](C)O)NC1=O (stereo partly drawn) (X1-[Orn(4R-OH)]T[Hyp][hTyr(3R-OH)][X14][Pro(3S-OH)]; lactam 1-C) = 110 nM
8. CCC(C)CC(C)CCCCCCCCC(=O)N[C@H]1C[C@@H](O)[C@@H](O)NC(=O)[C@@H]2[C@@H](O)CCN2C(=O)[C@H]([C@H](O)CC#N)NC(=O)[C@H]([C@H](O)[C@@H](O)c2ccc(O)cc2)NC(=O)[C@@H]2C[C@@H](O)CN2C(=O)[C@H]([C@@H](C)O)NC1=O (stereo partly drawn) (X1-[Orn(4R-OH,5R-OH)]T[Hyp][hTyr(3S-OH,4S-OH)][X9][Pro(3S-OH)]; lactam 1-C) = 100 nM
9. CCC(C)CC(C)CCCCCCCCC(=O)N[C@H]1C[C@@H](O)CNC(=O)[C@@H]2[C@@H](O)CCN2C(=O)[C@H]([C@H](O)CC(N)=O)NC(=O)[C@H]([C@H](O)Cc2ccc(O)cc2)NC(=O)[C@@H]2C[C@@H](O)CN2C(=O)[C@H]([C@@H](C)O)NC1=O (stereo partly drawn) (X1-[Orn(4R-OH)]T[Hyp][hTyr(3R-OH)][Gln(3R-OH)][Pro(3S-OH)]; lactam 1-C) = 70 nM
10. CCC(C)CC(C)CCCCCCCCC(=O)N[C@H]1C[C@@H](O)[C@@H](O)NC(=O)[C@@H]2[C@@H](O)CCN2C(=O)[C@H]([C@H](O)CCN(C)C)NC(=O)[C@H]([C@H](O)[C@@H](O)c2ccc(O)cc2)NC(=O)[C@@H]2C[C@@H](O)CN2C(=O)[C@H]([C@@H](C)O)NC1=O (stereo partly drawn) (X1-[Orn(4R-OH,5R-OH)]T[Hyp][hTyr(3S-OH,4S-OH)][X7][Pro(3S-OH)]; lactam 1-C) = 5 nM
